measurement.target: Human BCMA (human) (UniProt Q02223)
experiment.description: SPR, IgG on chip, huBCMA analyte
Measured koff, listed per entry.
The reply should contain only the number, in s⁻¹.

[[record]]
binder = "A02_Rd4_6nM_C10 (antibody, V domains shown, IgG) VH: EVQLLESGGGLVQPGGSLRLSCAASGFTFSSYAMNWVRQAPGKGLEWVSAISDSGGSCWYADSVKGRFTISRDNSKNTLYLQMNSLRAEDTAVYYCARYWPMTPWGQGTLVTVSS VL: EIVLTQSPGTLSLSPGERATLSCRASQSVEMSYLAWYQQKPGQAPRLLMYDASIRATGIPDRFSGSGSGTDFTLTISRLEPEDFAVYYCQQYAHWPLTFGQGTKVEIK"
test_value = 0.000315


Moving on to the next binder.
q: I have this binder here, A02_Rd4_0.6nM_C01 (antibody, V domains shown, IgG; also called P5AC1) VH: EVQLLESGGGLVQPGGSLRLSCAASGFTFSSYAMNWVRQAPGKGLEWVSAILSSGGSTYYADSVKGRFTISRDNSKNTLYLQMNSLRAEDTAVYYCARYWPMDIWGQGTLVTVSS VL: EIVLTQSPGTLSLSPGERATLSCRGGQSVSSSYLAWYQQKPGQAPRLLMYDASIRATGIPDRFSGSGSGTDFTLTISRLEPEDFAVYYCQQYQSWPLTFGQGTKVEIK , and I need its recorded koff.
a: 0.000915
